Assay Info: Lipophilicity, log kw of compound by RP-HPLC
Type: physicochemical
So I've got a bunch of compounds here, and I need their log K values.
Numbers only.

Compound	log K
CCC1(CC)CC(=O)N(Nc2ccc(Cl)cc2Cl)C1=O	2.552
CCC1(CC)CC(=O)N(Nc2ccccc2)C1=O	1.826
CCCC1(C)CC(=O)N(Nc2ccccc2Cl)C1=O (stereo not drawn)	2.364
CCCCC1(C)CC(=O)N(Nc2ccccc2Cl)C1=O (stereo not drawn)	2.566
CCCC1(C)CC(=O)N(Nc2ccc(Cl)cc2)C1=O (stereo not drawn)	2.445
O=C1C2CCCCC2C(=O)N1Nc1ccc(Cl)cc1Cl (stereo not drawn)	2.425
CCCCC1(C)CC(=O)N(Nc2ccc(Cl)cc2Cl)C1=O (stereo not drawn)	2.896
O=C1C2CCCCC2C(=O)N1Nc1ccccc1Cl (stereo not drawn)	2.162
CCC1(C)CC(=O)N(Nc2ccc(Cl)cc2Cl)C1=O (stereo not drawn)	2.334
CC1(C)CC(=O)N(Nc2ccc(Br)cc2)C1=O	1.864

For every item below, please supply its log K.
1. CCC1(C)CC(=O)N(Nc2ccccc2)C1=O (stereo not drawn)
2. CC1(C)CC(=O)N(Nc2ccccc2)C1=O
3. O=C1C2CCCCC2C(=O)N1Nc1cccc(Cl)c1 (stereo not drawn)

stdout:
[1.695, 1.471, 2.173]

* * *

Give measured Activity for each item. Keep answers brief.
System: Mus musculus
Assay Info: Neurotoxicity in ip dosed CF1 albino mouse after 4 hrs by rotarod test
Assay type: toxicity, organism-based
Condition Summary: in vivo
One number for each entry, in mg/kg.

Compound	Activity / mg/kg
CCC1(C)CC(=O)N(Nc2ccc(Cl)cc2)C1=O (centres undefined)	300
CCC1(C)CC(=O)N(Nc2ccccc2C)C1=O (centres undefined)	100
CCCC1(C)CC(=O)N(Nc2ccc(Br)cc2)C1=O (centres undefined)	300
CCCC1(C)CC(=O)N(Nc2ccc(Cl)cc2)C1=O (centres undefined)	300
O=C1C2CCCCC2C(=O)N1Nc1ccc(Cl)cc1Cl (centres undefined)	300

Working through the 4 compounds below one at a time, give Activity for each.
1. CCC1(C)CC(=O)N(Nc2ccc(Cl)cc2Cl)C1=O (centres undefined)
2. O=C1NC(=O)C(c2ccccc2)(c2ccccc2)N1
3. CC1(C)CC(=O)N(Nc2ccc(Cl)cc2)C1=O
4. CCC1(CC)CC(=O)N(Nc2ccc(Cl)cc2)C1=O

stdout:
[300, 100, 300, 300]

* * *

Provide the reported log K of each item.
Assay Info: Lipophilicity, log kw of compound by RP-HPLC
Type: physicochemical
Numbers only.

Observe how each entry below is paired with its result.
Compound	log K
CCCCC1(C)CC(=O)N(Nc2ccc(Cl)cc2)C1=O (stereo not given)	2.638
CCC1(CC)CC(=O)N(Nc2ccccc2Cl)C1=O	2.244

Give me log K for each of these compounds, listed below.
1. CCC1(C)CC(=O)N(Nc2ccc(C)cc2)C1=O (stereo not given)
2. CC1(C)CC(=O)N(Nc2cccc(Cl)c2)C1=O
3. O=C1C2CCCCC2C(=O)N1Nc1ccc(Cl)cc1 (stereo not given)
4. CCC1(CC)CC(=O)N(Nc2ccc(Br)cc2)C1=O
5. CCC1(CC)CC(=O)N(Nc2ccc(C)cc2)C1=O
6. CC1(C)CC(=O)N(Nc2ccccc2Cl)C1=O

stdout:
1: 1.928; 2: 2.071; 3: 2.224; 4: 2.221; 5: 1.999; 6: 1.876

Provide log K values for the following items, in order.
1. CCCCC1(C)CC(=O)N(Nc2ccc(Br)cc2)C1=O (stereo not given)
2. CCC1(C)CC(=O)N(Nc2ccc(Cl)cc2)C1=O (stereo not given)

stdout:
1. 2.539
2. 2.201
